experimental endpoint: melting point

These recorded examples may help you get a feel for the data.
compound: N=C(N)Nc1nnc2nnc(SCc3cccc(F)c3)n2n1
melting point: 235 to 237 °C

compound: CCOC(=O)C1=C(C)Nc2ncnn2C1c1ccc(NC(=O)CN)cc1 (stereo not shown) [Compound 10b]
melting point: 270 to 272 °C

compound: Nc1ccc(-c2cc(-c3ccc(N)cc3)n3ccnc3n2)cc1
melting point: 169 to 171 °C

Exercise: Quick one: melting point for "Nc1ccc(-c2cc(-c3cccs3)n3ncnc3n2)cc1" ?
Key: 211 to 214 °C

Exercise: Quick one: melting point for CCOC(=O)C1=C(C)Nc2ncnn2C1c1cccc(NC(=O)CN)c1 (stereo not shown) [Compound 10a] ?
Key: 270 to 272 °C

Exercise: Quick one: melting point for CCCCCCCCSc1nnc2nnc(NC(=N)N)nn12 [Compound 16a] ?
Key: > 260 °C

Exercise: Quick one: melting point for N=C(N)Nc1nnc2nnc(SC3CCCC3)n2n1 [Compound 16b] ?
Key: 252 to 253 °C

Where do these numbers come from? They come from paper PMC10648877.
